# credit: patent US9637483B2

Target: JAK3 (Homo sapiens, UniProt P52333)
Construct: purchased Invitrogen
Sequence (P52333 1-1124): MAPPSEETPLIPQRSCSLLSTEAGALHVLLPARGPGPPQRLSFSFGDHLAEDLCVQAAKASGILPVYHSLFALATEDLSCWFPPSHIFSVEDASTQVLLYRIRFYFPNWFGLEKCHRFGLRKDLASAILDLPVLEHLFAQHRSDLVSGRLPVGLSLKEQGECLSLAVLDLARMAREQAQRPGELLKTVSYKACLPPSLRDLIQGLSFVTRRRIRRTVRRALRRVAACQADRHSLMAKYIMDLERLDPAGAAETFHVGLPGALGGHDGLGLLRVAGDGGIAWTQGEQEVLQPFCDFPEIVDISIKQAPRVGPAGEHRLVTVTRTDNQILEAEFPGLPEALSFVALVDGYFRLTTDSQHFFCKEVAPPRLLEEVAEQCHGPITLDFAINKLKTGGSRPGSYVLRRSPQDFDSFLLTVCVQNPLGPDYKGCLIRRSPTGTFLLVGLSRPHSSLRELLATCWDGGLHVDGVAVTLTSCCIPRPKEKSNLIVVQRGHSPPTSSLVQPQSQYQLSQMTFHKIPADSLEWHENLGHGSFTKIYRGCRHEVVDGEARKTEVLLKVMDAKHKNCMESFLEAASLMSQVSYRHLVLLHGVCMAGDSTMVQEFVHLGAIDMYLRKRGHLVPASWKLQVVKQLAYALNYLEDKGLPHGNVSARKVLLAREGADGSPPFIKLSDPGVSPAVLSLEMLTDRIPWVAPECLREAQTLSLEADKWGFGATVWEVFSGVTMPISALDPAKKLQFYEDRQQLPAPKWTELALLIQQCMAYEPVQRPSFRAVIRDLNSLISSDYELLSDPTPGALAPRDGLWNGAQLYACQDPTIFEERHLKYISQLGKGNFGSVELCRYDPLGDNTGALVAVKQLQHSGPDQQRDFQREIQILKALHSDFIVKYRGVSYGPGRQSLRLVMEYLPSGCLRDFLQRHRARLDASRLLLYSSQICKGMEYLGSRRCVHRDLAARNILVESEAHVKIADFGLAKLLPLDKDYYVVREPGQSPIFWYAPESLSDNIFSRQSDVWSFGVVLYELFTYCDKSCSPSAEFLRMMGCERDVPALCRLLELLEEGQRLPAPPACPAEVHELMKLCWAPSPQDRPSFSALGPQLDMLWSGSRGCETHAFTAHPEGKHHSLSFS
Experiment: JAK3 enzyme inhibition test (LANCE method)
Format: biochemical
Conditions: 1 μM test compound; read-out: JAK3 enzyme inhibitory activity (%, 1 μM)
quantity.kind: inhibition at 1 µM (%)
// note: answer is a bare numeric in %

Solved entries (count: 6):
> print(dat)
                                   compound       quantity.kind  numeric.value
1  C[C@H](C1CC1)n1cc(-c2cc(N3CCOCC3)n(C)n2)c2[nH]nc(N)c2c1=O  inhibition at 1 µM             98
2  Cn1nc(-c2cn(C3CCCC3(C)C)c(=O)c3c(N)n[nH]c23)cc1N1CCOCC1 (racemic) [Example 73]  inhibition at 1 µM            100
3  CC(C)[C@H](C)n1cc(-c2cc(N3CCC(C(C)(C)O)CC3)n(C)n2)c2[nH]nc(N)c2c1=O  inhibition at 1 µM            100
4  Cn1nc(-c2cn(C(C3CC3)C3CC3)c(=O)c3c(N)n[nH]c23)cc1N1CCS(=O)(=O)CC1  inhibition at 1 µM            100
5  CC(C)[C@H](C)n1cc(-c2cc(C(C)(C)C(=O)N(C)C)n(C)n2)c2[nH]nc(N)c2c1=O  inhibition at 1 µM             94
6  CC(C)[C@H](C)n1cc(-c2cc(N3CCC(C)(O)CC3)n(C)n2)c2[nH]nc(N)c2c1=O  inhibition at 1 µM             99

Which value of inhibition at 1 µM has been reported for CC(C)C(C(N)=O)n1cc(-c2cc(N3CCOCC3)n(C)n2)c2[nH]nc(N)c2c1=O (stereo not drawn) in the records?
89

Looking for the measured inhibition at 1 µM of `Cn1nc(-c2cn(C(C3CC3)C3CC3)c(=O)c3c(N)n[nH]c23)cc1N1CCC(F)(F)C1` , can you help?
99

Would you kindly share the measured inhibition at 1 µM for `COC1(c2cc(-c3cn(-c4c(F)cccc4F)c(=O)c4c(N)n[nH]c34)nn2C)CN(S(C)(=O)=O)C1` ?
99

Sample `COC(C)(C)c1cc(-c2cn([C@@H](C)C(C)C)c(=O)c3c(N)n[nH]c23)nn1C` — what was its inhibition at 1 µM?
99

Can you look up the measured inhibition at 1 µM of `CNC(=O)c1cc(-c2cn(-c3c(F)cccc3F)c(=O)c3c(N)n[nH]c23)nn1C` for me?
100

I'd like to know its inhibition at 1 µM. The compound in question is `Cn1nc(-c2cn(-c3c(F)cccc3F)c(=O)c3c(N)n[nH]c23)cc1N1CCC(C#N)CC1`
100

Bench note: what inhibition at 1 µM did `Cn1nc(-c2cn(C(C3CC3)C3CC3)c(=O)c3c(N)n[nH]c23)cc1C1=CCCCC1` show?
103

Please give the measured inhibition at 1 µM for this compound: `CC(C)[C@H](C)n1cc(-c2cc(N3CCC(F)(F)C3)n(C)n2)c2[nH]nc(N)c2c1=O`
99

Any idea what its inhibition at 1 µM is? The compound is `Cn1nc(-c2cn(C(C3CC3)C3CC3)c(=O)c3c(N)n[nH]c23)cc1N1CCC[C@@H]1CO`
100
